# target under test: T1, human IL-36R extracellular domain expressed with a C-terminal mouse IgG2a Fc tag (hIL-36R-mFc) (human; mouse, UniProt Q9HB29 20-337)
# T1 construct: not shown: mouse IgG2a Fc, E98-K330
# T1 sequence (looked up): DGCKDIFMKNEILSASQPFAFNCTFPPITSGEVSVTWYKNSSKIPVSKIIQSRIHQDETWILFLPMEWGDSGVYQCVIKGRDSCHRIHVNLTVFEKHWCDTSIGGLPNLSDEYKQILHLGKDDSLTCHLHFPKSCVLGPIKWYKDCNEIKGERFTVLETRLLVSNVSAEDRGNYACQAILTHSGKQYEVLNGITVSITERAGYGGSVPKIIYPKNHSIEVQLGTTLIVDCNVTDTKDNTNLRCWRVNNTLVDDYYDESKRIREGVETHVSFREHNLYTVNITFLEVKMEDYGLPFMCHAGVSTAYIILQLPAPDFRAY
# test: SPR Biacore 4000, mAb captured on anti-hFc, 37C
# Description: Equilibrium dissociation constants (KD values) for IL-36R binding to purified anti-IL-36R antibodies were determined using a real-time surface plasmon resonance biosensor using a Biacore 4000 instrument. […] Kinetic association rate constant (kₐ) and dissociation rate constant (kd) were determined by fitting the real-time sensorgrams to a 1:1 binding model using Scrubber 2.0c curve fitting software. […]
Each entry below carries its recorded kon.
Dear colleague, please return just the value in M⁻¹ s⁻¹, with no unit written.

Known kon results, listed for orientation:
INSERT INTO assay_data (binder, measured_property, unit_info, readout_number) VALUES
  ('H4H14758P (antibody, human IgG4 S228P, kappa, V domains shown, Fully human anti-IL-36R antibody) VH: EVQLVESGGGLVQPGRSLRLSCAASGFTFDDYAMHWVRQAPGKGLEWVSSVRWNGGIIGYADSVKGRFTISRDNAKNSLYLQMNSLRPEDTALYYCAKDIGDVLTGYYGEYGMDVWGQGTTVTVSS VL: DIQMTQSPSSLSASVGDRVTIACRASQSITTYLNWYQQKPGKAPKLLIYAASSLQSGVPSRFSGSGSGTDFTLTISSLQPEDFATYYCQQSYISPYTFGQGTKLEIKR', 'kon', 'M⁻¹ s⁻¹', 554000),
  ('H4H14706P2 (antibody, human IgG4 S228P, kappa, V domains shown, Fully human anti-IL-36R antibody) VH: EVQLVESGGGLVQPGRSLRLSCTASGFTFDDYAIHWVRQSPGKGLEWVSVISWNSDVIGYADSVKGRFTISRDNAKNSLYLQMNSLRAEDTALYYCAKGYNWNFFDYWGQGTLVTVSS VL: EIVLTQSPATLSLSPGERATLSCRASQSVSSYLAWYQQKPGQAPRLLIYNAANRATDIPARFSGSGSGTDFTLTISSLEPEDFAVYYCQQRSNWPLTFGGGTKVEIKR', 'kon', 'M⁻¹ s⁻¹', 593000);

Prompt line: Hello, please tell me recorded kon for this one: H4H14728P (antibody, human IgG4 S228P, kappa, V domains shown, Fully human anti-IL-36R antibody) VH: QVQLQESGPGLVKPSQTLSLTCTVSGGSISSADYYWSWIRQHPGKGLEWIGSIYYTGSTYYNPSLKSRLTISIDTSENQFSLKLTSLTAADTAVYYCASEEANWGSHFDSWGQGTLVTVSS VL: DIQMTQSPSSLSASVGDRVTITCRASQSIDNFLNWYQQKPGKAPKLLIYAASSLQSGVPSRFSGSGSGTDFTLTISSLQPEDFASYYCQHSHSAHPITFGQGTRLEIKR
Response line: 16200

Prompt line: Hello, please tell me recorded kon for this one: H4H14709P (antibody, human IgG4 S228P, kappa, V domains shown, Fully human anti-IL-36R antibody) VH: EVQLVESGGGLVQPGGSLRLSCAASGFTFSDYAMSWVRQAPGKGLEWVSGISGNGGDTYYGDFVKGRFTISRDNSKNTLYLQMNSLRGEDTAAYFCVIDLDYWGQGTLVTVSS VL: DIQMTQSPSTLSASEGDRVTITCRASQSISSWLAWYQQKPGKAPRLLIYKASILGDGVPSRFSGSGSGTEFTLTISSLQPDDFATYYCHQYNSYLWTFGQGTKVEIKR
Response line: 543000

Prompt line: Hello, please tell me recorded kon for this one: H4H14731P (antibody, human IgG4 S228P, kappa, V domains shown, Fully human anti-IL-36R antibody) VH: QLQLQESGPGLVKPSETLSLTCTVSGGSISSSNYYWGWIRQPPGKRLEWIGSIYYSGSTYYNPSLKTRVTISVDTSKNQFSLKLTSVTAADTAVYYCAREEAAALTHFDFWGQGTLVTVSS VL: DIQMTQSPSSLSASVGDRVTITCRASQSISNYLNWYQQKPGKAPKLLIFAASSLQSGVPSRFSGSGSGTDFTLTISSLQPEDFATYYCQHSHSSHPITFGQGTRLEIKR
Response line: 69900
